# Assay: Cyclic voltammetry: formal redox potential, peak current ratio, electrochemical reversibility
# Format: physicochemical
# Test parameters: pH 13 (1 M NaOH); midpoint of CV peak potentials
Attribute measured: formal redox potential E0'

Consider the reported formal redox potential E0' for these compounds:
Compound	Recorded result
Oc1c(Cl)c(Cl)c(O)c(Cl)c1Cl [HQ(1,4)TCl, Tetrachloro hydroquinone]	0.08(1) VNHE
Oc1ccc(O)cc1 [HQ(1,4), Para hydroquinone]	0.11(1) VNHE
O=C1c2cccc(S(=O)(=O)[O-])c2C(=O)c2c1cccc2S(=O)(=O)[O-].[K+].[K+]	-0.464(4) VNHE
O=C(O)c1cnccn1	Unstable

## Task So what's the measured formal redox potential E0' for this one? O=C1c2ccccc2C(=O)c2cc(S(=O)(=O)O)ccc21 [AQS(2), 9,10-anthraquinone-2-sulfonate sodium]
## Result -0.334(3) VNHE

## Task So what's the measured formal redox potential E0' for this one? O=C1c2ccc(O)c(O)c2C(=O)c2c(O)ccc(O)c21 [AQTH(1,2), 1,2,5,8-tetrahydroxy-9,10-anthraquinone]
## Result -0.69(1) VNHE

## Task So what's the measured formal redox potential E0' for this one? Cc1cc(O)c2c(c1)C(=O)c1cc(O)cc(O)c1C2=O
## Result -0.63(1) VNHE

## Task So what's the measured formal redox potential E0' for this one? O=C1C=CC(=O)C=C1
## Result 0.11 VNHE

## Task So what's the measured formal redox potential E0' for this one? c1ccc2nc3ccccc3nc2c1
## Result Unstable

## Task So what's the measured formal redox potential E0' for this one? c1cnccn1
## Result Unstable

## Task So what's the measured formal redox potential E0' for this one? Oc1c(F)c(F)c(O)c(F)c1F [HQ(1,4)TF, 1,2,4,5-tetrafluoro-3,6-dihydroxybenzene]
## Result -0.05(6) VNHE

## Task So what's the measured formal redox potential E0' for this one? O=S(=O)([O-])c1cc(O)ccc1O.[K+] [HQ(1,4)S, 2,5-dihydroxybenzenesulfonate potassium]
## Result -0.07(1) VNHE

###

# Assay: Visual inspection of dissolved samples on standing (thixotropy, phase separation)
# Format: physicochemical
# Test parameters: electrolyte not stated
Attribute measured: Comment: behaviour of the solution upon standing

Compound	Recorded result
O=C1c2ccccc2C(=O)c2cc(S(=O)(=O)O)ccc21 [AQS(2), 9,10-anthraquinone-2-sulfonate sodium]	Phase separation
O=C1c2cccc(S(=O)(=O)[O-])c2C(=O)c2c1cccc2S(=O)(=O)[O-].[K+].[K+]	Phase separation
O=C1c2cccc(S(=O)(=O)[O-])c2C(=O)c2cccc(S(=O)(=O)[O-])c21.[Na+].[Na+]	Phase separation

###

# Assay: Cyclic voltammetry: formal redox potential, peak current ratio, electrochemical reversibility
# Format: physicochemical
# Test parameters: pH 0
Peak current ratio overview

Consider the reported Peak current ratio for these molecules:
Molecule	Peak current ratio
O=C1c2cccc(O)c2C(=O)c2c(O)cc(CO)cc21	0.58(4)
Cc1cc(O)c2c(c1)C(=O)c1cc(O)cc(O)c1C2=O	0.15(4)
O=C1c2ccccc2C(=O)c2cc(S(=O)(=O)O)ccc21 [AQS(2), 9,10-anthraquinone-2-sulfonate sodium]	1.0(1)
O=C1c2ccc(O)cc2C(=O)c2ccc(O)cc21 [AQDH(2,6), 2,6-dihydroxy-9,10-anthraquinone]	0.83(4)
O=C1c2ccccc2C(=O)c2c(O)ccc(O)c21 [AQDH(1,4), 1,4-dihydroxy-9,10-anthraquinone]	0.6(1)

## Task So what's the measured Peak current ratio for this one? O=C1c2ccccc2C(=O)c2c1cc(S(=O)(=O)O)c(O)c2O
## Result 0.9(1)

## Task So what's the measured Peak current ratio for this one? O=C1C=C(O)C(=O)c2ccccc21 [NQ(1,4)H, 2-hydroxy-1,4-naphtoquinone]
## Result 0.81(8)

## Task So what's the measured Peak current ratio for this one? Oc1c(F)c(F)c(O)c(F)c1F [HQ(1,4)TF, 1,2,4,5-tetrafluoro-3,6-dihydroxybenzene]
## Result 0.5(1)
